meta.source: patent US11065231B2

Heads up, these compounds all have IC50 values measured for IRAK4 (Homo sapiens (Human), UniProt Q9NWZ3).

Guide cases for IC50, answers given:
compound	assay metric	result
CN(CCOCCOCCOCCOc1ccc2c(c1)C(=O)N(C1CCC(=O)NC1=O)C2=O)c1cccc(-n2c(NC(=O)c3cccc(C(F)(F)F)c3)nc3cc(F)ccc32)c1 (stereo not shown)	IC50	≥ 1000 nM
Cc1ccc(-n2nc(N3CCN(CCOCCOCCOCCOc4ccc5c(c4)C(=O)N(C4CCC(=O)NC4=O)C5=O)CC3)cc2NC(=O)c2cnn3cccnc23)nc1 (stereo not shown)	IC50	300 to 1000 nM
O=C1CCC(N2C(=O)c3ccc(OCCN4CCC(CN5CCN(Cc6ccc7c(c6)nc(NC(=O)c6cccc(C(F)(F)F)c6)n7[C@H]6CC[C@@H](CO)CC6)CC5)CC4)cc3C2=O)C(=O)N1 (stereo partly shown)	IC50	< 30 nM
COc1cc2nn(C3CCN(CCOCCOCCOCCNc4cccc5c4C(=O)N(C4CCC(=O)NC4=O)C5=O)CC3)cc2cc1NC(=O)c1cccc(C(F)(F)F)n1 (stereo not shown)	IC50	< 30 nM
N#Cc1ccc2ncnc(N[C@H]3CC[C@@H](N4CCN(S(=O)(=O)CCOCCOCCOCCOc5ccc6c(c5)C(=O)N(C5CCC(=O)NC5=O)C6=O)CC4)CC3)c2c1 (stereo partly shown)	IC50	≥ 1000 nM

Task item: Given the entry Cc1ncsc1-c1ccc(CNC(=O)[C@@H]2C[C@@H](O)CN2C(=O)[C@@H](NC(=O)COCCOCCOCCN2CCN(Cc3ccc4c(c3)nc(NC(=O)c3cccc(C(F)(F)F)c3)n4C3CCC(CO)CC3)CC2)C(C)(C)C)cc1 (mixture of isomers) , report its measured IC50.
Reply: 300 to 1000 nM
